STUDY TARGET: T1, 4H2949-AA
T1 chain: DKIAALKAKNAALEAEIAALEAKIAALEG
METHOD NOTES: two-hybrid library CCmax;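 further: natural log of median RNA to DNA barcode read ratio; higher means stronger binding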
CONDITION PARAMETERS: mean of both orientations
VALUE KIND: interaction score

Worked set:
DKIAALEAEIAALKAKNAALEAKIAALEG [4H2165-AA] :: -1.21
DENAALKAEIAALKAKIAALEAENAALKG [4H1636-AA] :: -1.16
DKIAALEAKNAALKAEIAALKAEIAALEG [4H2505-AA] :: 1.68

[P] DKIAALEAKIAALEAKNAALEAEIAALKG [4H2354-AA]
[Q] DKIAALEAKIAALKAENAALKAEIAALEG [4H2393-AA]
[R] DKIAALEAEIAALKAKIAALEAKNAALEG [4H2151-AA]
Lookup: Thanks in advance: please rank these 3 entries by interaction score, highest to lowest. # answer = labels listed in requested order
Found: Q, R, P
